# credit: paper doi:10.1101/718155

biological target: S100A10; experiment: FP; competitive
experimental_endpoint: Kd

So what's the measured Kd for this one? VLQTWLQDLLRRGLVRAAQ [TRPM4 (129-147) peptide] 125 µM
